Settings: 288.15 K; 101.33 kPa; Liquid; Pulse-echo method
Reported Property: speed of sound (m/s)

[
  {
    "Compound": "CCCOCC(C)OCC(C)O (centres undefined)",
    "speed of sound, m/s": 1306.3
  },
  {
    "Compound": "CCCCN",
    "speed of sound, m/s": 1296.1
  },
  {
    "Compound": "CCCCN(CCCC)CCCC",
    "speed of sound, m/s": 1285
  },
  {
    "Compound": "CCCCNCCCC",
    "speed of sound, m/s": 1289.2
  }
]

----------
Details: 308.15 K; 101.33 kPa; Liquid
Reported Property: mass density (kg/m3)

[
  {
    "Compound": "CCCCN(CCCC)CCCC",
    "Unit Tag": "kg/m3",
    "mass density": 766.44
  },
  {
    "Compound": "CCCCNCCCC",
    "Unit Tag": "kg/m3",
    "mass density": 748.17
  },
  {
    "Compound": "CCCOCC(C)OCC(C)O (centres undefined)",
    "Unit Tag": "kg/m3",
    "mass density": 906.642
  },
  {
    "Compound": "CCCCN",
    "Unit Tag": "kg/m3",
    "mass density": 723.625
  }
]

----------
Settings: 288.15 K; 101.33 kPa; Liquid
Reported Property: mass density (kg/m3)

[
  {
    "Molecule": "CCCCN(CCCC)CCCC",
    "mass density (kg/m3)": 781.336
  },
  {
    "Molecule": "CCCCNCCCC",
    "mass density (kg/m3)": 766.115
  },
  {
    "Molecule": "CCCOCC(C)OCC(C)O (centres undefined)",
    "mass density (kg/m3)": 924.348
  },
  {
    "Molecule": "CCCCN",
    "mass density (kg/m3)": 742.865
  }
]

----------
Conditions: 293.15 K; 101.33 kPa; Liquid; Pulse-echo method
Reported Property: speed of sound (m/s)

[
  {
    "Compound": "CCCOCC(C)OCC(C)O (centres undefined)",
    "Reported Property": "speed of sound",
    "Unit Tag": "m/s",
    "Obs Value": 1287.9
  },
  {
    "Compound": "CCCCN",
    "Reported Property": "speed of sound",
    "Unit Tag": "m/s",
    "Obs Value": 1273.6
  },
  {
    "Compound": "CCCCNCCCC",
    "Reported Property": "speed of sound",
    "Unit Tag": "m/s",
    "Obs Value": 1269.5
  },
  {
    "Compound": "CCCCN(CCCC)CCCC",
    "Reported Property": "speed of sound",
    "Unit Tag": "m/s",
    "Obs Value": 1266.4
  }
]

----------
Details: 298.15 K; 101.33 kPa; Liquid
Reported Property: mass density (kg/m3)

[
  {
    "Compound": "CCCCN",
    "Unit Tag": "kg/m3",
    "mass density": 733.301
  },
  {
    "Compound": "CCCCN(CCCC)CCCC",
    "Unit Tag": "kg/m3",
    "mass density": 773.913
  },
  {
    "Compound": "CCCCNCCCC",
    "Unit Tag": "kg/m3",
    "mass density": 757.784
  },
  {
    "Compound": "CCCOCC(C)OCC(C)O (centres undefined)",
    "Unit Tag": "kg/m3",
    "mass density": 915.522
  }
]

Just for reference, the NIST ThermoML archive (doi:10.1007/s10765-009-0593-3) is where these values come from.
